Hi there, I'd appreciate the recorded IC50 for every entry that follows.
- subject_of_test: cytosolic kinase domain of KDR kinase (Homo sapiens)
- Construct: The cytosolic kinase domain of KDR kinase was expressed as a 6His fusion protein in Sf9 insect cells; 6His
- Sequence (P35968 834-1162 limits assumed): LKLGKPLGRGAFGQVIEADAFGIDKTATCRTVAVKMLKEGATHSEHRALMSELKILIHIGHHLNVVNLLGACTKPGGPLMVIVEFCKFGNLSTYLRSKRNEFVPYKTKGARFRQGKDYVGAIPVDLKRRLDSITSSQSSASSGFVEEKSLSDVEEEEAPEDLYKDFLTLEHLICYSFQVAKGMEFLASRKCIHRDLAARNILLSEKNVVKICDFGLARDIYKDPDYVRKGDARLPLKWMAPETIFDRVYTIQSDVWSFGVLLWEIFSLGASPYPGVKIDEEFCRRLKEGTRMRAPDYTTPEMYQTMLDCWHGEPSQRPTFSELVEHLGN
- assay_name: KDR Assay (ELISA, phosphorylation of poly(Glu4;Tyr1))
- experimental_context: 3.3 µM ATP, 60 minutes at room temperature, 30 ng KDR kinase domain
Structures can show the parent of a compound that is named as a salt.

In: IC50 for `CNC(=O)c1cc(Cc2nnc(Nc3cccc(Br)c3)c3ccccc23)ccn1` ?
Out: < 100 nM

In: IC50 for `c1ccc2c(Nc3ccc(Oc4ccncc4)cc3)nnc(Cc3ccncc3)c2c1` ?
Out: 100 to 1000 nM

In: IC50 for `c1ccc2c(Nc3ccc4ncsc4c3)nnc(Cc3ccncc3)c2c1` ?
Out: < 100 nM

In: IC50 for `CNC(=O)c1cc(Cc2nnc(Nc3ccc(Cl)cc3)c3ccccc23)ccn1` ?
Out: < 100 nM

In: IC50 for `c1ccc2c(Nc3ccc4c(c3)CCC4)nnc(Cc3ccncc3)c2c1` ?
Out: < 100 nM

In: IC50 for `CNC(=O)c1cc(COc2nnc(Nc3ccc(Cl)cc3)c3ccccc23)ccn1` ?
Out: < 100 nM

In: IC50 for NC(=O)c1cc(COc2nnc(Nc3ccc(Cl)cc3)c3ccccc23)ccn1 [Example 15, dihydrochloride] ?
Out: < 100 nM

In: IC50 for `Clc1ccc(Nc2nnc(Cc3ccnc(-c4ccccc4)c3)c3ccccc23)cc1` ?
Out: 100 to 1000 nM

In: IC50 for NC(=O)c1cc(Cc2nnc(Nc3ccc(Cl)cc3)c3ccccc23)ccn1 [Example 13, dihydrochloride] ?
Out: < 100 nM
